Task for the reader: assign each of the following compounds its reported IC50.
Assayed system: C481S BTK (Homo sapiens, UniProt Q06187, C481S)
Sequence (Q06187 whole entry C481S): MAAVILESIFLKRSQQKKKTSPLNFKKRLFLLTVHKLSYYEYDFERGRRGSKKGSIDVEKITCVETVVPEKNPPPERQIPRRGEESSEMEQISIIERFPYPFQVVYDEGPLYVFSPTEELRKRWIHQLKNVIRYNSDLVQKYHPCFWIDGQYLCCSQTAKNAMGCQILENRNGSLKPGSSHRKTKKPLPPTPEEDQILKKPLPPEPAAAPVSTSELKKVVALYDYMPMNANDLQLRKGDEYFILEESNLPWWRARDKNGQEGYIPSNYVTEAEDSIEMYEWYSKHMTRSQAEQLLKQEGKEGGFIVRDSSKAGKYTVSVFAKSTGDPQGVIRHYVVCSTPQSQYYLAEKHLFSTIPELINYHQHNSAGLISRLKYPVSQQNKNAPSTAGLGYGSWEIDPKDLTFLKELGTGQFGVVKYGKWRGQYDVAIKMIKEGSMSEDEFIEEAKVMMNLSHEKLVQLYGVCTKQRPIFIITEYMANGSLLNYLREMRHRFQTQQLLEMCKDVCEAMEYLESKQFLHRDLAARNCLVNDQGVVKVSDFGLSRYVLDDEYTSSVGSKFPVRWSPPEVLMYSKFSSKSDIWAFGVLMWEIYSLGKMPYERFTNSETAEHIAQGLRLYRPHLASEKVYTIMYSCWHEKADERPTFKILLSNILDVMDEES
Protocol description: Caliper-based biochemical enzymatic assay (IC50), C481S BTK
Test conditions: 0.5 nM enzyme, ATP 16 μM, room temperature 3 h; read-out: C481S BTK IC50 (nM) (reversible inhibition)

Look up IC50: `C=CC(=O)Nc1cc(Nc2nc(-c3ccnc(N4CCn5c(cc6c5CC(C)(C)C6)C4=O)c3C)cn(C)c2=O)ccc1N1CCN(C2COC2)C[C@@H]1C` < 1 nM

Another compound to look at: `C=CC(=O)Nc1cc(Nc2nc(-c3ccnc(N4CCn5c(cc6c5CC(C)(C)C6)C4=O)c3CO)cn(C)c2=O)ccc1N1CCN(C2COC2)C[C@@H]1C` < 1 nM

Another compound to look at: C=CC(=O)Nc1cc(Nc2nc(-c3ccnc(N4CCn5c(cc6c5CC(C)(C)C6)C4=O)c3CO)cn(C)c2=O)ccc1N1CCC(N2CCOCC2)CC1C (stereo not shown) < 1 nM

Another compound to look at: `C=CC(=O)Nc1cc(Nc2nc(-c3ccnc(N4CCn5c(cc6c5CC(C)(C)C6)C4=O)c3CO)cn(C)c2=O)ccc1N1CCN(C)CC1` 1.7 nM
